Tested on: hT40, dGA, dGAE and truncated tau fragments
Assay: Binding ELISA / epitope mapping of anti-tau scAbs with truncated tau proteins and 13mer peptides
Parameters: species or system human
Conditions: Table 17; 'C' group scAbs; binding ELISA
measurement kind: Tau proteins/fragments with positive scAb reactivity

| molecule | result |
| --- | --- |
| CC7: human-specific anti-tau clone, Table 10; SEQ ID NO: 365 (protein, CC7 amino acid sequence) scFv: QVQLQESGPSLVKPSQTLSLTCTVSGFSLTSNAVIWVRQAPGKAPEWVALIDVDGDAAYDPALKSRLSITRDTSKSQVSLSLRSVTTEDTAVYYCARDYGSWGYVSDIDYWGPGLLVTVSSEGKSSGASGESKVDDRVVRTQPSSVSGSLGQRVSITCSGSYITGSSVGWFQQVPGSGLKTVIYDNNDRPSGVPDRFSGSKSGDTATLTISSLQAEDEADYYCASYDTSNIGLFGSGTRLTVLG | hT40, 1-319 |
| CA7: anti-tau clone, Table 10; VH SEQ ID NO: 503, VL 504 (antibody, V domains shown, CA7 VH Domain; CA7 VL Domain) VH: RVRLQGSGPSLVKPSQTLSLTCTVSGFSFDSYYVGWVRQAPGKALEWLGNIYSTGRAFYNPALKSRLSITRDTSKSQVSLSVSSVTIEDTALYYCVRGSYYHGGGNGMVDFFDYWSPGLLVTVSS VL: QVVRTQPSSVSGSLGQRVSITCSGSSSNVGYGNYVGWFQQVPGSAPKLLIYAATSRASGVPDRFSGSRSGNTATLTIDSLQAEDEADYYCSSYQRGNTGVFGSGTRLTVLG | hT40, 1-319 |
